subject_of_test: KRAS G12D (Homo sapiens (Human), UniProt P01116+P62937, G12D)
Sequence (P01116-2 other isoform, or with tags, fused parts or gaps G12D, one chain of several): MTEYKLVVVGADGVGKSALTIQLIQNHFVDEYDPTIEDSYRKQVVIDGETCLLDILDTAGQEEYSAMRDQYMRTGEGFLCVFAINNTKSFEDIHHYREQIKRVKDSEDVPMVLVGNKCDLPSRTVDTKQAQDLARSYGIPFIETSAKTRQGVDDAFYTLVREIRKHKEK
method_description: Ras-Raf (BRAF RBD) disruption / FRET / MOA assay, KRAS G12D
Type: biochemical
experimental_context: Ras-Raf disruption/FRET/MOA assay; class symbols; read-out: KRAS G12D FRET data IC50
endpoint_name: IC50

Here's what some known entries look like.
>  <molecule>
C=CC(=O)N1CC2(CCN(C(=O)N(C)[C@H](C(=O)N[C@H]3Cc4cccc(c4)-c4ccc5c(c4)c(c(-c4cccnc4[C@H](C)OC)n5CC)CC(C)(C)COC(=O)[C@@H]4CCCN(N4)C3=O)C(C)C)CC2)C1 (atropisomer, axis not shown) [Example A680]

>  <IC50>
1 to 10 µM

$$$$
>  <molecule>
C=CC(=O)N1CC[C@H](C(=O)N(C)[C@H](C(=O)N[C@H]2Cc3cccc(c3)-c3ccc4c(c3)c(c(-c3cnccc3COC)n4CC)CC(C)(C)COC(=O)[C@@H]3CCCN(N3)C2=O)C(C)C)C1 (atropisomer, axis not shown) [Example A119]

>  <IC50>
> 10 µM

$$$$
>  <molecule>
CCn1c(-c2cncnc2)c2c3cc(ccc31)-c1csc(n1)C[C@H](NC(=O)[C@H](C(C)C)N(C)C(=O)[C@H]1CCN(C(=O)C#CCN3CCOCC3)C1)C(=O)N1CCC[C@H](N1)C(=O)OCC(C)(C)C2 [Example A177]

>  <IC50>
> 10 µM

$$$$
>  <molecule>
C=CC(=O)N1CC[C@H](C(=O)N(C)[C@H](C(=O)N[C@H]2Cc3cc(O)cc(c3)-c3ccc4nc(-c5cccnc5COC)c(n4c3)CC(C)(C)COC(=O)[C@@H]3CCCN(N3)C2=O)C(C)C)C1 [Example A243]

>  <IC50>
> 10 µM

$$$$
>  <molecule>
C=CC(=O)N1CCN(C(=O)N(C)[C@H](C(=O)N[C@H]2Cc3cc(O)cc(c3)-c3ccc4c(c3)c(c(-c3ccccc3CCOC)n4CC)CC(C)(C)COC(=O)[C@@H]3CCCN(N3)C2=O)C(C)C)CC1 [Example A018]

>  <IC50>
> 10 µM

$$$$
>  <molecule>
CCn1c(-c2cccnc2COC)c2c3cc(ccc31)-c1cc(O)cc(c1)C[C@H](NC(=O)[C@H](C(C)C)N(C)C(=O)C1CN(C(=O)/C=C/CN(C)C)C1)C(=O)N1CCC[C@H](N1)C(=O)OCC(C)(C)C2 [Example A071]

>  <IC50>
1 to 10 µM

$$$$
>  <molecule>
CCn1c(-c2cccnc2[C@H](C)OC)c2c3cc(ccc31)-c1cccc(c1)C[C@H](NC(=O)[C@H](C(C)C)N(C)C(=O)[C@@H]1CCN(C(=O)C#CC(C)(C)N3CCC3)C1)C(=O)N1CCC[C@H](N1)C(=O)OCC(C)(C)C2 [Example A476]

>  <IC50>
1 to 10 µM

$$$$

Now let's try a different one.
IC50 of C=CC(=O)N1CCN(C(=O)N(C)[C@H](C(=O)N[C@H]2Cc3nc(cs3)-c3ccc4c(c3)c(c(-c3cccnc3[C@H](C)OC)n4CC)CC(C)(C)COC(=O)[C@@H]3CCCN(N3)C2=O)C(C)C)CC1 (atropisomer, axis not shown) [Example A492] on KRAS G12D (Homo sapiens (Human), UniProt P01116+P62937, G12D)?
0.1 to 1 µM

###

subject_of_test: K-Ras G12C (Homo sapiens (Human), UniProt P01116+P62937, G12C)
Sequence (P01116-2 other isoform, or with tags, fused parts or gaps G12C, one chain of several): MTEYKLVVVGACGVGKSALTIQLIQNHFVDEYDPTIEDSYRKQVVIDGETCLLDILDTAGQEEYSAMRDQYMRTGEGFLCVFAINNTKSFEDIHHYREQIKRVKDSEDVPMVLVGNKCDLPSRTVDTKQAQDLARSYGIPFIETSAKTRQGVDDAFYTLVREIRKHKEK
method_description: Ras-Raf (BRAF RBD) disruption / FRET / MOA assay, KRAS G12C
Type: biochemical
experimental_context: KRAS G12C; Ras-Raf disruption/FRET/MOA assay; read-out: IC50* KRAS G12C FRET data
pIC50: −log10 of the molar value.
endpoint_name: pIC50

Here's what some known entries look like.
>  <molecule>
CO[C@@H](C)c1ncccc1-c1c2c3cc(ccc3n1CC(F)(F)F)-c1cccc(c1)C[C@H](NC(=O)[C@H](C(C)C)N(C)C(=O)[C@H]1CCN(C(=O)C#CC(C)(C)N(C)C)C1)C(=O)N1CCC[C@H](N1)C(=O)OCC(C)(C)C2 (atropisomer, axis not shown) [Example A727]

>  <subject_of_test>
K-Ras G12C (Homo sapiens (Human), UniProt P01116+P62937, G12C)

>  <pIC50>
> 8.00

$$$$
>  <molecule>
C=CC(=O)N1CC[C@H](C(=O)N(C)[C@H](C(=O)N[C@H]2Cc3cc(OC4O[C@H](CO)[C@@H](O)[C@H](O)[C@H]4O)cc(c3)-c3ccc4c(c3)c(c(-c3cccnc3COC)n4CC)CC(C)(C)COC(=O)[C@@H]3CCCN(N3)C2=O)C(C)C)C1 (stereo partly shown) [Example A234]

>  <subject_of_test>
K-Ras G12C (Homo sapiens (Human), UniProt P01116+P62937, G12C)

>  <pIC50>
< 5.00

$$$$
>  <molecule>
C=CC(=O)N(C)[C@H]1C[C@H](N(C)C(=O)N(C)[C@H](C(=O)N[C@H]2Cc3nc(cs3)-c3ccc4c(c3)c(c(-c3cccnc3[C@H](C)OC)n4CC)CC(C)(C)COC(=O)[C@@H]3CCCN(N3)C2=O)C(C)C)C1 (atropisomer, axis not shown) [Example A712]

>  <subject_of_test>
K-Ras G12C (Homo sapiens (Human), UniProt P01116+P62937, G12C)

>  <pIC50>
7.00 to 8.00

$$$$

Now let's try a different one.
Item under review: CCn1c(-c2cccnc2[C@H](C)OC)c2c3cc(ccc31)-c1cccc(c1)C[C@H](NC(=O)[C@H](C(C)C)N(C)C(=O)[C@H]1CCN(C(=O)C#CC3(N(C)C)CCOC3)C1)C(=O)N1CCC[C@H](N1)C(=O)OCC(C)(C)C2 (stereo partly shown) [Example A533] . Reported pIC50?
7.00 to 8.00

###

subject_of_test: KRAS G12S (Homo sapiens (Human), UniProt P01116+P62937, G12S)
Sequence (P01116-2 other isoform, or with tags, fused parts or gaps G12S): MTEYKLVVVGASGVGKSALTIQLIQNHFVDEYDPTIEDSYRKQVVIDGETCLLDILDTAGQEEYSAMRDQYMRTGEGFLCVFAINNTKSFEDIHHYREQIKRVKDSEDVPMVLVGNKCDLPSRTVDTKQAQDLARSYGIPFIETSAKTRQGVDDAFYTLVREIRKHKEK
Sequence (P62937 whole entry): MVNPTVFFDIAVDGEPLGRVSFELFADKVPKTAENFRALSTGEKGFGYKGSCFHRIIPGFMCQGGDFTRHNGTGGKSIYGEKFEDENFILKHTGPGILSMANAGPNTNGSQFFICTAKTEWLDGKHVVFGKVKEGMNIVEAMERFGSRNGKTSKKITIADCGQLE
method_description: Ras-Raf (BRAF RBD) disruption / FRET / MOA assay, KRAS G12S
Assay type: biochemical
experimental_context: Ras-Raf disruption/FRET/MOA assay; class symbols; read-out: KRAS G12S FRET data IC50
pIC50: −log10 of the molar value.
endpoint_name: pIC50

Here's what some known entries look like.
>  <compound>
C=CC(=O)N1CC[C@H](C(=O)N(C)[C@H](C(=O)N[C@H]2Cc3cc(O)cc(c3)-c3ccc4c(c3)c(c(-c3cccc(=O)n3C(C)C)n4CC)CC(C)(C)COC(=O)[C@@H]3CCCN(N3)C2=O)C(C)C)C1 [Example A151]

>  <endpoint_name>
pIC50

>  <result>
5.00 to 6.00

$$$$
>  <compound>
C=CC(=O)N1CCO[C@H]2CN(C(=O)N(C)[C@H](C(=O)N[C@H]3Cc4cccc(n4)-c4ccc5c(c4)c(c(-c4cccnc4[C@H](C)OC)n5CC(F)(F)F)CC(C)(C)COC(=O)[C@@H]4CCCN(N4)C3=O)C(C)C)C[C@H]21 (atropisomer, axis not shown) [Example A595]

>  <endpoint_name>
pIC50

>  <result>
5.00 to 6.00

$$$$
>  <compound>
C=CC(=O)N1CCCC2(CCN(C(=O)N(C)[C@H](C(=O)N[C@H]3Cc4nc(cs4)-c4ccc5c(c4)c(c(-c4cccnc4[C@H](C)OC)n5CC)CC(C)(C)COC(=O)[C@@H]4CCCN(N4)C3=O)C(C)C)CC2)C1 (atropisomer, axis not shown) [Example A635]

>  <endpoint_name>
pIC50

>  <result>
6.00 to 7.00

$$$$
>  <compound>
CCn1c(-c2cccnc2[C@H](C)OC)c2c3cc(ccc31)-c1cccc(c1)C[C@H](NC(=O)[C@H](C(C)C)N1CC[C@@]3(CCN(C(=O)C#C[C@H]4COCCN4C)C3)C1=O)C(=O)N1CCC[C@H](N1)C(=O)OCC(C)(C)C2 (atropisomer, axis not shown) [Example A551]

>  <endpoint_name>
pIC50

>  <result>
5.00 to 6.00

$$$$
>  <compound>
C=CC(=O)N1CC[C@H](C(=O)N(C)[C@H](C(=O)N[C@H]2Cc3cc(O)cc(c3)-c3ccc4c(c3)c(c(-c3cccnc3COC)n4C)CC(C)(C)COC(=O)[C@@H]3CCCN(N3)C2=O)C(C)C)C1 [Example A066]

>  <endpoint_name>
pIC50

>  <result>
5.00 to 6.00

$$$$

pIC50 of C=CC(=O)N1CC[C@H](C(=O)N(C)[C@H](C(=O)N[C@H]2Cc3cc(O)cc(c3)-c3ccc4c(c3)c(c(-c3cccnc3[C@@H](OC)C3CC3)n4CC)CC(C)(C)COC(=O)[C@@H]3CCCN(N3)C2=O)C(C)C)C1 (atropisomer, axis not shown) [Example A207] on KRAS G12S (Homo sapiens (Human), UniProt P01116+P62937, G12S)?
6.00 to 7.00

And the next one, C=CC(=O)N1CC[C@H](C(=O)N(C)[C@H](C(=O)N[C@H]2Cc3cc(O)cc(c3)-c3ccc4c(c3)c(c(-c3ccccc3CN(C)C)n4CC)CC(C)(C)COC(=O)[C@@H]3CCCN(N3)C2=O)C(C)C)C1 [Example A005] ?
6.00 to 7.00

And the next one, C=CC(=O)N1CC[C@H](C(=O)N(C)[C@H](C(=O)N[C@H]2Cc3cc(cc(C(F)F)c3)-c3ccc4c(c3)c(c(-c3cccnc3[C@H](C)OC)n4CC)CC(C)(C)COC(=O)[C@@H]3CCCN(N3)C2=O)C(C)C)C1 (atropisomer, axis not shown) [Example A341] ?
5.00 to 6.00
